targetOfAssay: T1, sIL-6R (soluble IL-6 receptor; SBH Sciences) (human, UniProt P08887 20-365)
T1 construct: also called human IL-6R
T1 sequence: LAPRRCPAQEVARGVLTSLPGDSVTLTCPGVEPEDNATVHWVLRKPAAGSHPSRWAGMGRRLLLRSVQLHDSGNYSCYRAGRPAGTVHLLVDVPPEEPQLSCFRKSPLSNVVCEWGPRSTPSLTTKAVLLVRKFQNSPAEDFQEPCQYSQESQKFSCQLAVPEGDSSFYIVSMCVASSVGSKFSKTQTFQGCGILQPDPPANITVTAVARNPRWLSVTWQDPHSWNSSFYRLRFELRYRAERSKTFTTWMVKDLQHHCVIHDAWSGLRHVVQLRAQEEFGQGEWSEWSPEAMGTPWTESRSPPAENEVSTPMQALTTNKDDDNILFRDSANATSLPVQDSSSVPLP
experimentSummary: SPR (BIAcore 3000), antibody on chip, sIL-6R analyte, 25 C
propertyName: Relative Affinity

binder="222# (antibody, human IgG1, kappa, V domains shown, also called Sample # 222) VH: QVQLQESGPGLVRPSQTLSLTCTVSGYSITSDHAWSWVRQPPGRGLEWIGYISYSGMITYNPSLKSRVTMLRDTSKNQFSLRLSSVTAADTAVYYCARCLARMTAMDYWGQGSLVTVSS VL: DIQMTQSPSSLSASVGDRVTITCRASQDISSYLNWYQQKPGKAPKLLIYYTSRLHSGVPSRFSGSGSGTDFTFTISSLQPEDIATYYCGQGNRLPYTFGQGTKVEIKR" observedmeasurement="11 fold vs 25 (Tocilizumab)"
binder="224# (antibody, human IgG1, kappa, V domains shown) VH: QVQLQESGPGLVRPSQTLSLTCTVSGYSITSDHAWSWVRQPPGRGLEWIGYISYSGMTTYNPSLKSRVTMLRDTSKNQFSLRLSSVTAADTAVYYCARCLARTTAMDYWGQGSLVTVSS VL: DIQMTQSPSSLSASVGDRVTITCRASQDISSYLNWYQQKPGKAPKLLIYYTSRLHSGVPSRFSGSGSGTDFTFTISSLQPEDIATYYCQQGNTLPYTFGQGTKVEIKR" observedmeasurement="6.3 fold vs 25 (Tocilizumab)"
binder="218# (antibody, human IgG1, kappa, V domains shown) VH: QVQLQESGPGLVRPSQTLSLTCTVSGYSITSDHAWSWVRQPPGRGLEWIGYISYSGMITYNPSLKSRVTMLRDTSKNQFSLRLSSVTAADTAVYYCARCLARMTAIDFWGQGSLVTVSS VL: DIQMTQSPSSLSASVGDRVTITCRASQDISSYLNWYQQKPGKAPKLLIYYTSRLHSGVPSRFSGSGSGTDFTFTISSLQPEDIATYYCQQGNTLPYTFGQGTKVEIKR" observedmeasurement="5.1 fold vs 25 (Tocilizumab)"
binder="242# (antibody, human IgG1, kappa, V domains shown, also called Sample # 242) VH: QVQLQESGPGLVRPSQTLSLTCTVSGYSITSDHAWSWVRQPPGRGLEWIGYISYSGMITYNPSLKSRVTMLRDTSKNQFSLRLSSVTAADTAVYYCARSLARMTAIDFWGQGSLVTVSS VL: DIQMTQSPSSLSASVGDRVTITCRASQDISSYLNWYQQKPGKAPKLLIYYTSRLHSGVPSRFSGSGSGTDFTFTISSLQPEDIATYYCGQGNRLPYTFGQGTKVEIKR" observedmeasurement="2.6 fold vs 25 (Tocilizumab)"
binder="235# (antibody, human IgG1, kappa, V domains shown) VH: QVQLQESGPGLVRPSQTLSLTCTVSGYSITSDHAWSWVRQPPGRGLEWIGYISYSGMITYNPSLKSRVTMLRDTSKNQFSLRLSSVTAADTAVYYCARTLARMTAIDFWGQGSLVTVSS VL: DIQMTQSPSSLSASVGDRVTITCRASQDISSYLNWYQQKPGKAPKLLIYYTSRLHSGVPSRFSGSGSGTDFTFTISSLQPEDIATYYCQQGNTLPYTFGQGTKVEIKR" observedmeasurement="10.6 fold vs 25 (Tocilizumab)"
binder="231# (antibody, human IgG1, kappa, V domains shown, also called Sample # 231) VH: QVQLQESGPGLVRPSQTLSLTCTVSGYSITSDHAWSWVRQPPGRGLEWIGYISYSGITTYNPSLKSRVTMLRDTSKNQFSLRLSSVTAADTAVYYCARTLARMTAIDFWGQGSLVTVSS VL: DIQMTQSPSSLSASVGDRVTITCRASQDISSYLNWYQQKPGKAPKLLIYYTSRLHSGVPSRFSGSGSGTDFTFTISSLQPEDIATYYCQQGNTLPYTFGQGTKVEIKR" observedmeasurement="2820 fold vs 25 (Tocilizumab)"
binder="219# (antibody, human IgG1, kappa, V domains shown) VH: QVQLQESGPGLVRPSQTLSLTCTVSGYSITSDHAWSWVRQPPGRGLEWIGYISYSGITTYNPSLKSRVTMLRDTSKNQFSLRLSSVTAADTAVYYCARCLARMTAIDFWGQGSLVTVSS VL: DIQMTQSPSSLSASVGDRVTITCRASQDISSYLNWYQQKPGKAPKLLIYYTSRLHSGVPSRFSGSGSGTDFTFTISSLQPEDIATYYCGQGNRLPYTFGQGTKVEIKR" observedmeasurement="6.4 fold vs 25 (Tocilizumab)"
binder="52# (antibody, human IgG1, kappa, V domains shown, also called Sample # 52) VH: QVQLQESGPGLVRPSQTLSLTCTVSGYSITSDHAWSWVRQPPGRGLEWIGYISYSGITTYNPSLKSRVTMLRDTSKNQFSLRLSSVTAADTAVYYCARSLARTTAIDFWGQGSLVTVSS VL: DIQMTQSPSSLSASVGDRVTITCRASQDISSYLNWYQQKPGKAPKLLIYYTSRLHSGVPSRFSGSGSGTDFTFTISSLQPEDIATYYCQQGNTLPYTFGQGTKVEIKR" observedmeasurement="1.7 fold vs 25 (Tocilizumab)"
binder="223# (antibody, human IgG1, kappa, V domains shown, also called Sample # 223) VH: QVQLQESGPGLVRPSQTLSLTCTVSGYSITSDHAWSWVRQPPGRGLEWIGYISYSGMITYNPSLKSRVTMLRDTSKNQFSLRLSSVTAADTAVYYCARCLARMTAIDFWGQGSLVTVSS VL: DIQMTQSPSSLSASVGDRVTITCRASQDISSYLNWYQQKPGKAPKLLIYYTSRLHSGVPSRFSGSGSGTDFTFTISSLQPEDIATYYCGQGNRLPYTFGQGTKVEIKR" observedmeasurement="8.6 fold vs 25 (Tocilizumab)"
binder="217# (antibody, human IgG1, kappa, V domains shown, also called Sample # 217) VH: QVQLQESGPGLVRPSQTLSLTCTVSGYSITSDHAWSWVRQPPGRGLEWIGYISYSGMITYNPSLKSRVTMLRDTSKNQFSLRLSSVTAADTAVYYCARCLARMTAMDYWGQGSLVTVSS VL: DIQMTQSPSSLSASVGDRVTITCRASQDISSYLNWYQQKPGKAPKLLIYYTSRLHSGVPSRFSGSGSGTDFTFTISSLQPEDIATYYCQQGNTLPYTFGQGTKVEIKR" observedmeasurement="5.4 fold vs 25 (Tocilizumab)"
